# assay target: αIIbβ3 integrin (Homo sapiens, UniProt P05106+P08514)
# Construct: Human fibrinogen receptor (αIIbβ3) was purified from human platelets
# Sequence (P08514 32-887 limits assumed): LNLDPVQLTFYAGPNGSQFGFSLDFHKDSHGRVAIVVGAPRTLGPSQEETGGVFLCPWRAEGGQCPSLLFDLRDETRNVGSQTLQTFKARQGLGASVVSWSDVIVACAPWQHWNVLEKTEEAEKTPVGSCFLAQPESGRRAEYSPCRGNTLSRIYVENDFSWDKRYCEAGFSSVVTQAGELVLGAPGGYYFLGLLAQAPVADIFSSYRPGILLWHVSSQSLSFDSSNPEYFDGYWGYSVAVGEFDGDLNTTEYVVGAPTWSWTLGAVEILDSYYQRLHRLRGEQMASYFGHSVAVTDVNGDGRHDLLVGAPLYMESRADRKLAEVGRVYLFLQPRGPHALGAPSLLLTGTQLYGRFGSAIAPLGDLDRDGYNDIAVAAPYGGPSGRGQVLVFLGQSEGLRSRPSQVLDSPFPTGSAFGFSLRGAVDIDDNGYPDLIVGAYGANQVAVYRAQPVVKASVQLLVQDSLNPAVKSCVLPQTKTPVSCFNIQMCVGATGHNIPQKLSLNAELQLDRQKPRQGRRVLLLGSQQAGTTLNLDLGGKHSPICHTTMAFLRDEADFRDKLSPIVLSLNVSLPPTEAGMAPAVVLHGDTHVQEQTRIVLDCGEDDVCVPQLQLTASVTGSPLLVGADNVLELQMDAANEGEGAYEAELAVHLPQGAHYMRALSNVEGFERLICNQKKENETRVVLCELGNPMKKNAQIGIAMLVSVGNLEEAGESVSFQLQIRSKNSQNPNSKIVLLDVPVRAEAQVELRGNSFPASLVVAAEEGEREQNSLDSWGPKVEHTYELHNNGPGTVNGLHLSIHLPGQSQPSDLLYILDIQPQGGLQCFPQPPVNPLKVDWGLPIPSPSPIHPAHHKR
# Sequence (P08514 891-1039 partner limits assumed): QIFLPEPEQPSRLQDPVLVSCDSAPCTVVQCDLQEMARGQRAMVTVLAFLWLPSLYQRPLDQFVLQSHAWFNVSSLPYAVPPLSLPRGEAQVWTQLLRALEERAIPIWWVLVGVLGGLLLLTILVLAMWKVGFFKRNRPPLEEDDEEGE
# Sequence (P05106 27-788): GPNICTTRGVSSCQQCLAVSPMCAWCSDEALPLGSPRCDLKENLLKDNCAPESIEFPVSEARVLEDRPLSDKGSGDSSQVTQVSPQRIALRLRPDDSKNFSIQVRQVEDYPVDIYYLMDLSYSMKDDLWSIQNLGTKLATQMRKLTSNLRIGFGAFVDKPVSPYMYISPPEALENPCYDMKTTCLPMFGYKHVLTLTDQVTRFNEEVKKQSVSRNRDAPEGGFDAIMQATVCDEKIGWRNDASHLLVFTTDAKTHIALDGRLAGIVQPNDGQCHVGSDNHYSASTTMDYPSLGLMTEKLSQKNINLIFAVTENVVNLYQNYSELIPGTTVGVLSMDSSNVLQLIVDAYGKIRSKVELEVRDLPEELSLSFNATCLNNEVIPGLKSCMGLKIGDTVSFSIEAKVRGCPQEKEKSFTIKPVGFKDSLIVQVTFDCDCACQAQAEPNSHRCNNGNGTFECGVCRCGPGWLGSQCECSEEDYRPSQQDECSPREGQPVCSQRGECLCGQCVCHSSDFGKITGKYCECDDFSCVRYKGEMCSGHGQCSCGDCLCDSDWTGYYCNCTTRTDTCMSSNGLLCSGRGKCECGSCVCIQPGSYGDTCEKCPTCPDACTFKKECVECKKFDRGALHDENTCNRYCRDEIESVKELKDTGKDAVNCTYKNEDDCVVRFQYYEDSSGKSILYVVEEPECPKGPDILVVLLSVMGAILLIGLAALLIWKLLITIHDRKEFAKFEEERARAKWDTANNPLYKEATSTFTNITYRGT
# experiment description: αIIbβ3-fibrinogen binding assay (solid phase)
# reported conditions: inhibition of biotinylated fibrinogen (10 nM) binding to coated integrin; read-out: αIIbβ3 (IC50 μmol)
pIC50: −log10 of the molar value.

| compound | assay target | pIC50 |
| --- | --- | --- |
| O=C(O)CC(Nc1ccc2c(c1)OCC(=O)N2CCCNc1ccccn1)c1ccccc1 (stereo not shown) | αIIbβ3 integrin (Homo sapiens, UniProt P05106+P08514) | 4.74 |

Provenance of the data: patent US7101876B2
